System: PC-3 prostate
Assay: NCI tumour cell line growth inhibition, 48 h
Outcome Measure: TGI

compound=COc1ccc(/C=C/C(=O)c2c(O)ccc3c(C)c(C(=O)O)oc23)cc1 experimental_target="PC-3 prostate" meas_value="> 100 µM"
compound=C/C(CCC(=O)O)=N/Nc1ccc([N+](=O)[O-])cc1 experimental_target="PC-3 prostate" meas_value="> 100 µM"
compound=Nn1c(Nc2ccc(S(N)(=O)=O)cc2)nnc(/C=C/c2c(O)ccc3ccccc23)c1=O experimental_target="PC-3 prostate" meas_value="> 100 µM"
compound=Cc1ccc([P+](Cc2ccccc2)(c2ccccc2)c2ccccc2)cc1 experimental_target="PC-3 prostate" meas_value="> 100 µM"
compound=OCc1ccc(-c2csc(-c3ccc(CO)o3)c2)o1 experimental_target="PC-3 prostate" meas_value="> 100 µM"
compound=Cc1cc2cc3cc(C)c(N)cc3nc2cc1N experimental_target="PC-3 prostate" meas_value="6.84 µM"
compound=Cn1c(-c2ccc[se]2)ccc1-c1ccc(C=O)[se]1 experimental_target="PC-3 prostate" meas_value="> 100 µM"
compound=CCC(=O)Nc1cccc(N=Cc2ccc(OC(=O)/C=C\c3ccccc3)cc2)c1 experimental_target="PC-3 prostate" meas_value="> 75 µM"
compound=O=C1/C(=C/c2ccc([N+](=O)[O-])s2)Oc2cc(Cl)ccc21 experimental_target="PC-3 prostate" meas_value="1.75 µM"
compound="Cc1nn(C(=O)c2ccccc2O)c2c1C(c1ccc(O)cc1O)SC(N)=N2 (stereo not given)" experimental_target="PC-3 prostate" meas_value="> 10 µM"
